# assayed system: human transporter OATP1B1 (Homo sapiens, UniProt Q9Y6L6)
# Sequence (Q9Y6L6 whole entry): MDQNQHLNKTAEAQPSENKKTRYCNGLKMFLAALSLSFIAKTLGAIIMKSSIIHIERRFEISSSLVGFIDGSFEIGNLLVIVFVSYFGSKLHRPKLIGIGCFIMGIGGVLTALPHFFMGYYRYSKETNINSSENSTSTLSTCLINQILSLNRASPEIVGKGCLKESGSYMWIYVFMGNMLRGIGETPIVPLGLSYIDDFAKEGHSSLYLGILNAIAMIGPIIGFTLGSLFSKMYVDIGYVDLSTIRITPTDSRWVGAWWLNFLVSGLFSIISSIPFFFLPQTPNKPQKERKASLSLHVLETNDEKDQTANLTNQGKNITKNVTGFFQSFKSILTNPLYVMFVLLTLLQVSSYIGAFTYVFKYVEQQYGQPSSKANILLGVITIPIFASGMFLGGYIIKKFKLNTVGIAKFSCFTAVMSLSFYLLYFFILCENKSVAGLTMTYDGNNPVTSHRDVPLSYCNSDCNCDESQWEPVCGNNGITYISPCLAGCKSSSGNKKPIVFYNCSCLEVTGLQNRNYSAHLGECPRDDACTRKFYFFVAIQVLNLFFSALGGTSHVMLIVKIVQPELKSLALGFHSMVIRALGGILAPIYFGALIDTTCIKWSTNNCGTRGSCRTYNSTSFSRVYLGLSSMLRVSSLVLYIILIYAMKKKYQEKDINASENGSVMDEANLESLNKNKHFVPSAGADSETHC
# run description: In vitro ion transport assay 1, OATP1B1
# condition summary: probe substrate 2 μM [3H]-estradiol-17β-D-glucuronide
measure: IC50 (µM)
Please reply with the bare figure in µM and do not write the unit itself.

Measured IC50, O=S(=O)(c1ccc(-n2cn[nH]c2=S)cc1)c1ccc(Cl)c(C(F)(F)F)c1 : 14.6

====

# assayed system: human transporter OCT2 (Homo sapiens, UniProt O15244)
# Sequence (O15244 whole entry): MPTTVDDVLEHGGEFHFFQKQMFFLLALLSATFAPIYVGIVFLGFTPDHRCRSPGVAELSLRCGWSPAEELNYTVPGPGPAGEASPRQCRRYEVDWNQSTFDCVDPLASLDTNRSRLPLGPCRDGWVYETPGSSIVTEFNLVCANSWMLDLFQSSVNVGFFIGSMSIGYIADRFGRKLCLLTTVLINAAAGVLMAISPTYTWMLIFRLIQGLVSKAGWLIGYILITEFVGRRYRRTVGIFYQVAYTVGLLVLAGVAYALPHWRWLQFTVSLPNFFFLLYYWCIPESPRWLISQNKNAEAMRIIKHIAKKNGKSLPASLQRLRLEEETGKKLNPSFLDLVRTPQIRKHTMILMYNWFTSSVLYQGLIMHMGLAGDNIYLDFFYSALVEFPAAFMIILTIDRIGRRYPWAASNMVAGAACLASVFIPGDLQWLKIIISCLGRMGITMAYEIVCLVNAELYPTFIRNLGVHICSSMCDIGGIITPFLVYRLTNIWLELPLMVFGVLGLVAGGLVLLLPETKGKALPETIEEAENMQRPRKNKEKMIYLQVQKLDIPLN
# run description: In vitro ion transport assay 1, OCT2
# condition summary: probe substrate 10 μM [14C]-metformin
measure: IC50

Measured IC50, O=S(=O)(c1ccc(-n2cn[nH]c2=S)cc1)c1ccc(Cl)c(C(F)(F)F)c1 [Compound 1] : > 100 µM
